I'd appreciate it if you could supply melting point values for the items below.

Data point: COc1ccc(CSc2nc(-c3ccc(Cl)cc3)cc(-c3ccc(OC)c(OC)c3)n2)cc1 [Compound 29] ; melting point = 279 to 281 °C

Measured melting point, COc1ccc(-c2cc(-c3ccc(Cl)cc3)nc(SC)n2)cc1OC [Compound 23] : 228 to 229 °C

response.value for COc1ccc(-c2cc(-c3ccc(Cl)cc3)nc(SC)n2)cc1 [Compound 9] (field: melting point) = 220 to 221 °C

get_value(item= CCCSc1nc(-c2ccc(OC)cc2)cc(-c2cccc(OC)c2)n1 [Compound 18] , readout=melting point) returns 218 to 220 °C

Lab book: melting point of COc1ccc(-c2cc(-c3cccc(OC)c3)nc(SC)n2)cc1 [Compound 16] noted as 213 to 215 °C

Reported melting point for C=CCSc1nc(-c2ccc(Cl)cc2)cc(-c2ccc(OC)cc2)n1 [Compound 13] was 245 to 247 °C

// melting point lookup, compound = COc1ccc(CSc2nc(-c3ccc(Cl)cc3)cc(-c3ccc(OC)cc3)n2)cc1 [Compound 15] , result: 278 to 280 °C

Form field melting point, entry COc1ccc(-c2cc(-c3ccc(Cl)cc3)nc(SCc3ccccc3)n2)cc1OC [Compound 28] : 239 to 241 °C

Lookup result for CCSc1nc(-c2ccc(OC)cc2)cc(-c2cccc(OC)c2)n1 [Compound 17] ; measured melting point: 221 to 222 °C

The compound listed as CCCSc1nc(-c2ccc(Cl)cc2)cc(-c2ccc(OC)cc2)n1 [Compound 11] has a reported melting point of 228 to 230 °C

Briefly, melting point measured for COc1ccc(-c2cc(-c3ccc(Cl)cc3)nc(SC(C)C)n2)cc1OC [Compound 26] : 233 to 253 °C

For this compound ( COc1ccc(-c2cc(-c3cccc(OC)c3)nc(SCc3ccccc3)n2)cc1 [Compound 21] ), measured melting point is 245 to 247 °C

Recorded result, COc1ccc(-c2cc(-c3cccc(OC)c3)nc(SC(C)C)n2)cc1 [Compound 19] , melting point: 235 to 237 °C

Reported melting point ( CCSc1nc(-c2ccc(Cl)cc2)cc(-c2ccc(OC)cc2)n1 [Compound 10] ) = 230 to 231 °C

Entry CCCSc1nc(-c2ccc(Cl)cc2)cc(-c2ccc(OC)c(OC)c2)n1 [Compound 25] — recorded melting point = 217 to 219 °C

// field: melting point; key: CCSc1nc(-c2ccc(Cl)cc2)cc(-c2ccc(OC)c(OC)c2)n1 [Compound 24] ; value = 229 to 231 °C

Lab note: measured melting point of COc1ccc(-c2cc(-c3ccc(Cl)cc3)nc(SC(C)C)n2)cc1 [Compound 12] was 198 to 201 °C

According to the records, this compound COc1ccc(-c2cc(-c3ccc(Cl)cc3)nc(SCc3ccccc3)n2)cc1 [Compound 14] displays melting point of 288 to 290 °C

Short answer for C=CCSc1nc(-c2ccc(OC)cc2)cc(-c2cccc(OC)c2)n1 [Compound 20] : melting point was 258 to 260 °C

For C=CCSc1nc(-c2ccc(Cl)cc2)cc(-c2ccc(OC)c(OC)c2)n1 [Compound 27] the compound record lists melting point as 244 to 246 °C

Recorded values, source paper PMC11576293.
